- system.tested: resting GPIIb/IIIa (Homo sapiens, UniProt P05106+P08514)
- Construct: Platelet rich plasma (PRP) was prepared by centrifugation of whole blood; endogenous in cells
- Sequence (P08514 32-887 limits assumed): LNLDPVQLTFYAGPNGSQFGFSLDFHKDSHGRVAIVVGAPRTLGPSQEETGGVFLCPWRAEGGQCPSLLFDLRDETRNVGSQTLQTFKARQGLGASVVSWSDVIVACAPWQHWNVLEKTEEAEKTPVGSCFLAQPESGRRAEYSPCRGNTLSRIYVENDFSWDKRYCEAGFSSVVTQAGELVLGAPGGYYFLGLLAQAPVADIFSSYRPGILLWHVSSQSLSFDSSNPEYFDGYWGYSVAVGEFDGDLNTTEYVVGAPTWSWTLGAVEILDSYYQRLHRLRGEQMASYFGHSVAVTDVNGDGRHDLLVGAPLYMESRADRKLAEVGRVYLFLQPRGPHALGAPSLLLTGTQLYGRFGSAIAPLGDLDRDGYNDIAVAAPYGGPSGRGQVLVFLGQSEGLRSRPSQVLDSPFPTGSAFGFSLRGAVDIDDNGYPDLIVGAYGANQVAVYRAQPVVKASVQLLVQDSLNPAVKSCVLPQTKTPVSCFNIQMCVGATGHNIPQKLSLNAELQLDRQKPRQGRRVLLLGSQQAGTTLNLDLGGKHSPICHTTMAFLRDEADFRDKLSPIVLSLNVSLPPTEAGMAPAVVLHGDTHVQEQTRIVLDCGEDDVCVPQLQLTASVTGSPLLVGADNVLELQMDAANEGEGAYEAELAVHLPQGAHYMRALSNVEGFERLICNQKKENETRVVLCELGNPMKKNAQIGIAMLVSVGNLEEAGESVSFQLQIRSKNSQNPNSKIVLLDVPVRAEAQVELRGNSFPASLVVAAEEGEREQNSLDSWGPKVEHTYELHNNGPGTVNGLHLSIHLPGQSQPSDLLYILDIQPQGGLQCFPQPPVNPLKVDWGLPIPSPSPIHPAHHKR
- Sequence (P08514 891-1039 partner limits assumed): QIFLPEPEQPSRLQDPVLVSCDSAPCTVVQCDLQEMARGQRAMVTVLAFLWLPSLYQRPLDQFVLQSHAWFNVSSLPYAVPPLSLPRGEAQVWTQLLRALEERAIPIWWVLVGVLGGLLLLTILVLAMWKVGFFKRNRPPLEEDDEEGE
- Sequence (P05106 27-788): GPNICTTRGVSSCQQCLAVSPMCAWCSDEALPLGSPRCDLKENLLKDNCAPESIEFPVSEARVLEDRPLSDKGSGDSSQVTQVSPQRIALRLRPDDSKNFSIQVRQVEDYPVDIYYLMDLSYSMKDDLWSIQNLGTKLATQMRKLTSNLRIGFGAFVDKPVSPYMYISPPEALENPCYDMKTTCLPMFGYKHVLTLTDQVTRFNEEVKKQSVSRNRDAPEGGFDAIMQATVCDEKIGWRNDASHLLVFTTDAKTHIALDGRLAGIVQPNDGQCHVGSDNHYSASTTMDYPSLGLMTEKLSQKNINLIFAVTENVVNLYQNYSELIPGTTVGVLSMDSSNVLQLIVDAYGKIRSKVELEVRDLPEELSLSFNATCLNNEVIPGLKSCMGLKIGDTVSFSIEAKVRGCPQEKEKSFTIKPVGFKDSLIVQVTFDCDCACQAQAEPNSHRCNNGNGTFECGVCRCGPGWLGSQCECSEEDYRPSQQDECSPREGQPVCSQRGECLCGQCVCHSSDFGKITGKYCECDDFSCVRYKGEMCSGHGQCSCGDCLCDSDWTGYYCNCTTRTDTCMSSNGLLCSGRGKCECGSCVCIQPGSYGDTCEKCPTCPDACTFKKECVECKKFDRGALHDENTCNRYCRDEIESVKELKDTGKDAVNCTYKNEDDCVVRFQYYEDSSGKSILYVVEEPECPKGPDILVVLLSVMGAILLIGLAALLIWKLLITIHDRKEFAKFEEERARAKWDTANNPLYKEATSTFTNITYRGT
- method.description: Test 2: suppression activity of fibrinogen adhesion of prostaglandin E1 (PGE1)-treated platelet
- study.conditions: washed PGE1 (1 μM)-treated platelets, plates coated with human fibrinogen 1 μg/well, 37° C. 30 min; read-out: R Suppression of fibrinogen adhesion IC50
Assign pIC50 to each entry below.
// scale note: pIC50 = -log10(conc_M); give the bare number

Q) pIC50 for N[C@@H](CNC(=O)[C@@H]1CCCN(C(=O)CCC2CCNCC2)C1)C(=O)O ?
A) 5.60

Q) Field entry: CCCCCCC(=O)N[C@H](CNC(=O)[C@@H]1CCCN(C(=O)CCC2CCNCC2)C1)C(=O)O
A) 6.70

Q) Consider next the molecule COC(=O)COc1ccc(C(=O)N[C@H](CNC(=O)[C@@H]2CCCN(C(=O)CCC3CCNCC3)C2)C(=O)O)cc1 in the same way.
A) 6.31
